Hey, just so you know, these numbers are from patent US11091749B2.

Kindly state IC50 for each of the entries shown.
target desc: DRB1*1501 (Homo sapiens, UniProt P01903+P01911)
Construct: purchased Benaroya Research Institute (Seattle, Wash.)
assay details: MHC II competition binding assay
Where no end group is shown, it is not given here.

Please report the recorded IC50 for DHVKAGQIIGWSGSTGY [Peptide Y93H] . < 10 nM

Please report the recorded IC50 for HLHFQTMVNDFSNPTAQ [Peptide 18_22] . < 10 nM

Please report the recorded IC50 for HLHFQTMVNSFSNPTAQ [Peptide R118T] . < 10 nM

Please report the recorded IC50 for HLHFQRMVGDFGNPTAQ [Peptide 212224] . 24200 nM

----------
target desc: DRB1*0101 (Homo sapiens, UniProt P01903+P01911, A100R/D57E/F55L/F60I/F76Y/I96L/L162R/M171V/P40L/Q125E/R42F/V115G/Y59C)
Construct: purchased Benaroya Research Institute (Seattle, Wash.)
assay details: MHC II competition binding assay
pIC50: −log10 of the molar value. Where no end group is shown, it is not given here.
Kindly state pIC50 for each of the entries shown.

Please report the recorded pIC50 for HLHFQTMVNSFSNPTAQ [Peptide R118T] . > 8.00

Please report the recorded pIC50 for HLHFQRMVGDFGNPTAQ [Peptide 212224] . 6.74

Please report the recorded pIC50 for HLHFQRMVGDFSNPTAQ [Peptide 21_22] . > 8.00

Please report the recorded pIC50 for HLHFQRMVNDFSNPTAQ [Peptide S122D] . > 8.00

Please report the recorded pIC50 for HLHFQTMVNDFGNPTAQ [Peptide 182224] . 5.13

Please report the recorded pIC50 for DYVEAGQIIGWSGSTGY [Peptide K95E] . > 8.00

Please report the recorded pIC50 for GVDFFMNEGTPVHAISSGKIV [Design 41_46] . > 8.00

Please report the recorded pIC50 for HLHFQTMVNDFSNPTAQ [Peptide 18_22] . > 8.00

----------
target desc: DRB1*1101 (Homo sapiens, UniProt P01903+P01911, A100R/A169T/A87E/I96F/K41T/L162R/M171V/P40S/Q125H/Q178H/Q39Y/Q99D/R42S/S66Y/T262R/V115G/W38E)
assay details: MHC II competition binding assay
Protocol: MHC Binding Assays. MHC II competition binding assays were performed using a 384-well high throughput assay as previously described (Salvat, et al. (2014) supra). Binding assays were performed for the eight alleles: DRB1*0101, 0301, 0401, 0701, 0801, 1101, 1301, and 1501. […] Bound control peptide was quantified using the DELFIA streptavidin-Europium conjugate and time resolved fluorescence (SpectraMax Gemini Fluorescence Microplate Reader).
Where no end group is shown, it is not given here.
Kindly state IC50 for each of the entries shown.

Please report the recorded IC50 for HLHFQTMVNDFSNPTAQ [Peptide 18_22] . < 0.01 µM

Please report the recorded IC50 for HLHFQTMVNDFGNPTAQ [Peptide 182224] . 14.1 µM

Please report the recorded IC50 for DHVKAGQIIGWSGSTGY [Peptide Y93H] . > 250 µM

Please report the recorded IC50 for HLHFQRMVNDFSNPTAQ [Peptide S122D] . < 0.01 µM

Please report the recorded IC50 for HLHFQRMVGDFSNPTAQ [Peptide 21_22] . 28.5 µM

Please report the recorded IC50 for HLHFQTMVNSFSNPTAQ [Peptide R118T] . < 0.01 µM

Please report the recorded IC50 for GVDFFMNEGTPVHAISSGKIV [Design 41_46] . < 0.01 µM

Please report the recorded IC50 for HLHFQRMVGDFGNPTAQ [Peptide 212224] . 13.4 µM
